- assay: ATG_M_19_CIS: Attagene CIS-FACTORIAL HepG2 Assay for M19 Transcription Factor (Internal Marker) (AID 2282939)
- test settings: HepG2 Attagene CIS-FACTORIAL M19 internal marker reporter; actives raise or lower the signal
The source made the active and inactive calls. How the source made its calls: active means hit-call score of the fitted dose curve at least 0.9, where 1 is the maximum; inactive means score below 0.9.
parameter measured: outcome

Some compounds with recorded outcome:
[[record]]
compound = "Nc1cc([N+](=O)[O-])ccc1O"
parameter_measured = "outcome"
reported = "inactive"

[[record]]
compound = "CC1CCC(C(C)CS)CC1S (stereo not drawn)"
parameter_measured = "outcome"
reported = "inactive"

[[record]]
compound = "CC1(C)[C@H](C(=O)OCc2cccc(Oc3ccccc3)c2)[C@@H]1C=C(Cl)Cl"
parameter_measured = "outcome"
reported = "inactive"

[[record]]
compound = "COC(=O)c1ccc(C)cc1"
parameter_measured = "outcome"
reported = "inactive"

[[record]]
compound = "Cc1ccc(C(=O)c2cc(O)c(O)c([N+](=O)[O-])c2)cc1"
parameter_measured = "outcome"
reported = "inactive"

[[record]]
compound = "CC(=O)c1c(C)cc(C(C)(C)C)cc1C"
parameter_measured = "outcome"
reported = "inactive"

[[record]]
compound = "CC(CCO)CCc1ccccc1 (stereo not drawn)"
parameter_measured = "outcome"
reported = "inactive"

[[record]]
compound = "CCOc1ccccc1OCC"
parameter_measured = "outcome"
reported = "inactive"


Qu. Quick check: outcome of CCCCc1ccc(N)cc1 ?
Ans. inactive

Qu. Quick check: outcome of O=C(Oc1ccccc1)c1ccc(O)cc1 ?
Ans. inactive

Qu. Quick check: outcome of CC1(C)C(=O)N(Br)C(=O)N1Cl ?
Ans. inactive

Qu. Quick check: outcome of C[C@]12CC[C@H]3[C@@H](CCC4=CC(=O)CC[C@@]43C)[C@@H]1CC[C@@H]2C(=O)CO ?
Ans. inactive

Qu. Quick check: outcome of CCCCCCCCCCCCCOS(=O)(=O)O ?
Ans. inactive

Qu. Quick check: outcome of CCCCCCCCCCCCOCCO ?
Ans. inactive

Qu. Quick check: outcome of OCCCCCO ?
Ans. inactive

Qu. Quick check: outcome of O=C(Nc1ccccc1)c1cc([N+](=O)[O-])ccc1Cl ?
Ans. inactive

Qu. Quick check: outcome of O=P(c1ccccc1)(c1ccccc1)c1ccccc1 ?
Ans. inactive

---

- System: IYD (gene 389434)
- assay: CCTE_GLTED_hIYD: CCTE's human Iodotyrosine Deiodinase (xIYD) Inhibition Assay, Great Lakes Toxicology and Ecology Division (GLTED) Lab (AID 2284317);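 further: cell-free human IYD enzyme made in baculovirus insect cells; iodide freed from monoiodotyrosine measured by cerium arsenite color change at 420 nm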
Active and inactive are the calls of the source. Rule for the calls: active = hit-call score of the fitted dose curve at least 0.9, where 1 is the maximum; inconclusive = response in the unintended direction; inactive = score below 0.9.
Measured AC50 of individual entries

Some compounds with recorded AC50:
[[record]]
chemical_structure = "CCCCCCCCCCCCCCCC(=O)O"
reported = "80.9 µM (active)"

[[record]]
chemical_structure = "CCCCCCCCCCCCCOS(=O)(=O)O"
reported = "34.2 µM (active)"

[[record]]
chemical_structure = "O=C1OC2(c3cc(Br)c(O)c(Br)c3Oc3c2cc(Br)c(O)c3Br)c2c(Cl)c(Cl)c(Cl)c(Cl)c21"
reported = "23.7 µM (active)"


Field: next compound
Qu. Quick check: AC50 of CCCCCCCCCCCCCCCC(=O)OC[C@H](O)[C@H]1OC(=O)C(O)=C1O ?
Ans. 25.6 µM (active)

---

- assay: ATG_VDRE_CIS: Attagene CIS-FACTORIAL HepG2 Assay for human Vitamin D Receptor Element (VDRE) (AID 2282968)
- test settings: HepG2 VDRE cis-reporter transcription, actives raise or lower the signal
Active and inactive are the calls of the source. How the source made its calls: active means hit-call score of the fitted dose curve at least 0.9, where 1 is the maximum; inactive means score below 0.9.
Returns: one label drawn from Yes for active, No for inactive

Example results:
[[record]]
molecule = "CC(=O)O[C@]1(C(C)=O)CC[C@H]2[C@@H]3C[C@H](C)C4=CC(=O)CC[C@]4(C)[C@H]3CC[C@@]21C"
label = "Yes"

[[record]]
molecule = "O=C(COc1ccc(Cl)cc1)N1CCN(Cc2ccc3c(c2)OCO3)CC1"
label = "No"

[[record]]
molecule = "COc1ccc(OC)c(OC)c1"
label = "No"


Qu. Name the outcome recorded for Sc1nc(S)nc(S)n1 in the assay.
Ans. No

Qu. Name the outcome recorded for CO[Si](CCCn1c(=O)n(CCC[Si](OC)(OC)OC)c(=O)n(CCC[Si](OC)(OC)OC)c1=O)(OC)OC in the assay.
Ans. No

Qu. Name the outcome recorded for Cc1ccc(C=O)s1 in the assay.
Ans. No

Qu. Name the outcome recorded for CC(C)(C)c1n[nH]c(=S)n(N)c1=O in the assay.
Ans. No

Qu. Name the outcome recorded for O=S(=O)(O)NC1CCCCC1 in the assay.
Ans. No

Qu. Name the outcome recorded for CCN(CC)c1ccc(C(=C2C=CC(=[N+](CC)CC)C=C2)c2ccc(S(=O)(=O)O)cc2S(=O)(=O)[O-])cc1 in the assay.
Ans. No
